biological target: αvβ3 integrin (Homo sapiens, UniProt P05106+P06756); assay: Inhibition of biotinylated LXW7 binding to αvβ3-K562 cells (flow cytometry); parameters: expressed in transfected cells; host or cells: K562 (gift of Dr. Yoshikazu Takada, UC Davis); conditions: LXW9-92: inhibiting the binding of biotinylated LXW7 against αvβ3-K562 cells; class symbols
Sequence (P06756 31-889 limits assumed): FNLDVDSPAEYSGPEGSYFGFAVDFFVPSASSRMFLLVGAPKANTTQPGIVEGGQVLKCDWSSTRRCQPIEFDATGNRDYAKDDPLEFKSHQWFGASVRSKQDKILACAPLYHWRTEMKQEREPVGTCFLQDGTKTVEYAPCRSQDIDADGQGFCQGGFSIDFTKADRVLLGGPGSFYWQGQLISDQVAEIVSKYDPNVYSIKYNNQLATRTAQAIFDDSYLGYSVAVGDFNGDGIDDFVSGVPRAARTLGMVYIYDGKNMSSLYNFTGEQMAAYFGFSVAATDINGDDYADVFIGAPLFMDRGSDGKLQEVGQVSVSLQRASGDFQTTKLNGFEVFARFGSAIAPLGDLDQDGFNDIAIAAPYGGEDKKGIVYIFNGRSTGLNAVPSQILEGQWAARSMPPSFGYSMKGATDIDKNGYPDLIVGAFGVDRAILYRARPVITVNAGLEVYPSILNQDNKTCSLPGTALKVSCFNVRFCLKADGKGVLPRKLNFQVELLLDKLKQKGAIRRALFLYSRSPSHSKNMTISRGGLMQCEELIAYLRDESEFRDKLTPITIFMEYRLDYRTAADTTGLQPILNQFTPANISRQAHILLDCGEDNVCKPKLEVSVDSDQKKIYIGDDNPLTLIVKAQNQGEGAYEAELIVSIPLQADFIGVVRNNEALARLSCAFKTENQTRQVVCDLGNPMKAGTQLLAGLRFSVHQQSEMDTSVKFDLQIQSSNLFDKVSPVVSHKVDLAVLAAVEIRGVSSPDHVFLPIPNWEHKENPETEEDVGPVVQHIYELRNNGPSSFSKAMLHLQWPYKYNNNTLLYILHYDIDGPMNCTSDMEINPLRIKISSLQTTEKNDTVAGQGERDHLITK
Sequence (P06756 891-1048 partner limits assumed): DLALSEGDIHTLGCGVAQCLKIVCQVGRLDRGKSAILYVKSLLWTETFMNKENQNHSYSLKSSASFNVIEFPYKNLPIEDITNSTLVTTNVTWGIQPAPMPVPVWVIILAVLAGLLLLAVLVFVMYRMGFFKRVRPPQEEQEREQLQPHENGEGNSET
Sequence (P05106 27-788): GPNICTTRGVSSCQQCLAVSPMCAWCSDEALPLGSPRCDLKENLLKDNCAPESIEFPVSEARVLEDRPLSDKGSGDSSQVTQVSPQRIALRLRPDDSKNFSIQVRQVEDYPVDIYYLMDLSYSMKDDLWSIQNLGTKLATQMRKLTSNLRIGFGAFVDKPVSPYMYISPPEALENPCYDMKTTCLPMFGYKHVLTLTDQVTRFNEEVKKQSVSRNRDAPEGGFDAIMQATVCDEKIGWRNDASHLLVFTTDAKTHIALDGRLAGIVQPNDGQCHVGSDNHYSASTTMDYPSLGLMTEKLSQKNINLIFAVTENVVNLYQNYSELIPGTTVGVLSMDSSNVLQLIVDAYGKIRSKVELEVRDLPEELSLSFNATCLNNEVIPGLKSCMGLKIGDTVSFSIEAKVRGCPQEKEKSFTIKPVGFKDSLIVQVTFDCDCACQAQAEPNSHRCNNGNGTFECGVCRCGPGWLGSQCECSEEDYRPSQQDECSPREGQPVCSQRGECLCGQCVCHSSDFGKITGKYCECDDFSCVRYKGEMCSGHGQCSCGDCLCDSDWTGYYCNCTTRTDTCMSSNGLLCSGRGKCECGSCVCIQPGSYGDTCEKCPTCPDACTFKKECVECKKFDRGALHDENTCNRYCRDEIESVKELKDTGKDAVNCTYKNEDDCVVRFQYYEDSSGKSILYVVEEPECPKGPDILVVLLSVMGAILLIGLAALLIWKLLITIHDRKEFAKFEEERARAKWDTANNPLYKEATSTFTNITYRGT
pIC50: −log10 of the molar value. Bridge positions count the residues as written; N and C are the ends. Square brackets hold non-standard residues; d marks the D form. Peptide text beside a SMILES is read from it. * marks the point of attachment. Pro(5R-Ph) = O=C(O)[C@@H]1CC[C@H](c2ccccc2)N1; dCit = NC(=O)NCCC[C@@H](N)C(=O)O; Nicotinoyl = O=C(c1cccnc1)*
Readout kind: pIC50

Consider the reported pIC50 for these compounds:
In: Input N=C(N)NCCC[C@@H]1NC(=O)CNC(=O)[C@H](N)CSSC[C@H](C(N)=O)NC(=O)[C@@H]2CC[C@H](c3ccccc3)N2C(=O)[C@@H](CCCNC(N)=O)NC(=O)[C@H](CC(=O)O)NC(=O)CNC1=O [LXW70, cGRGD-DCit-Ppca-c] (H-[dC]GRGD[dCit][Pro(5R-Ph)][dC]-NH2; disulfide 1-8) , output reported pIC50.
Out: < 5.00

In: Input CC(C)[C@@H]1C(=O)N[C@@H](C(N)=O)CSSC[C@@H](N)C(=O)NCC(=O)N[C@@H](CCCNC(=N)N)C(=O)NCC(=O)N[C@@H](CC(=O)O)C(=O)N[C@H](CC(=O)O)C(=O)N1C , output reported pIC50.
Out: > 6.00

More entries:
In: Input CC(C)[C@H]1NC(=O)[C@@H](CC(=O)O)NC(=O)[C@H](CC(=O)O)NC(=O)CNC(=O)[C@H](CCCNC(=N)N)NC(=O)CNC(=O)[C@H](NC(=O)c2cccnc2)CSSC[C@H](C(N)=O)NC1=O [LXW92, nicotinyl-cGRGDdvc] (Nicotinoyl-[dC]GRGD[dD][dV][dC]-NH2; disulfide 1-8) , output reported pIC50.
Out: 5.00 to 6.00
